- MEASUREMENT TARGET: HDAC8 Cys102Ser/Cys153Ser/Cys275Ser (Homo sapiens, UniProt Q9BY41, C102S/C153S/C275S)
- Construct: made in house
- Sequence (Q9BY41 whole entry C102S/C153S/C275S): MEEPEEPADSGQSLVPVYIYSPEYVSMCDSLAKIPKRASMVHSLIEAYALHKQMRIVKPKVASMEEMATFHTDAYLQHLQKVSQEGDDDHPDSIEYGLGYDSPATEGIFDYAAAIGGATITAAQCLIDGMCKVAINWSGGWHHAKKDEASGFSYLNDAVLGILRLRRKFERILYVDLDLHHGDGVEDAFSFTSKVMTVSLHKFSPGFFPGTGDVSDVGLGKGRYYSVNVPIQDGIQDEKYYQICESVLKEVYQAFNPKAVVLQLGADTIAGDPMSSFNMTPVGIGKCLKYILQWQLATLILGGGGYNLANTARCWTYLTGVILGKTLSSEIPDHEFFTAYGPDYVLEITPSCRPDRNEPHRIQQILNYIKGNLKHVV
- ASSAY DETAILS: HDAC8 mutant biochemical assay
- TEST CONDITIONS: read-out: IC50 [μM] @ 100 nM HDAC8: F Cys102Ser/Cys153Ser/Cys275Ser, 1 h preincubation
- Method: HDAC8 mutant variants were generated, produced, and further purified as described previously.[32] […] The enzyme activity assay was performed in assay buffer [25 mM Tris-HCl (pH 8.0), 50 mM NaCl, and 0.001% (v/v) Pluronic F-68] in black half-area 96-well microplates (Greiner Bio-One). […] IC50 values were calculated by generating dose–response curves in GraphPad Prism 6 and fitting those to a four-parameter logistic model.
READOUT TYPE: log10 IC50 (log10 of the value in µM)
Hi team, quick reminder: these entries are log10 of IC50 (µM).

{"MOLECULE": "C#Cc1cc[n+](C)cc1", "log10 IC50": 0.62}
{"MOLECULE": "C[n+]1ccccc1I", "log10 IC50": 1.38}
{"MOLECULE": "C#Cc1c[n+](C)ccn1", "log10 IC50": 1.81}

So for `C[n+]1cncc(I)c1` , the logged log10 IC50 turned out to be 1.18

So for `C[n+]1cncc(Br)c1` , the logged log10 IC50 turned out to be 1.28
